test: inhibitors of TNFa-induced NFkB p65 translocation, primary screen, imaging, HUVEC, MLSMR starter and 10KST1 sets (AID 438); conditions: HUVEC TNFa-induced p65 nuclear translocation; at 2 µM, active compounds read high, 0% TNFa-plus-vehicle, 100% no-TNFa wells;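 also: compound added about 3h40 before a 20 min TNFalpha stimulation; signal is the nuclear over cytoplasmic p65 intensity ratio per well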
Reported inhibition values for a set of compounds
Please respond with the number in % and leave the unit unwritten.

Some compounds with recorded inhibition:
compound=O=C(Cn1ccc2ccccc2c1=O)NCCC(=O)NC1CCN(Cc2ccccc2)CC1 measurement_name=inhibition scale_unit=% reported_result=-8.5
compound="CCC(=O)N1CCc2cc(Br)cc(S(=O)(=O)CCC(=O)NCC3CCCO3)c21 (stereo not given)" measurement_name=inhibition scale_unit=% reported_result=2.7
compound=CCCCn1nnnc1SCC(=O)N1CCN(C(=O)c2ccco2)CC1 measurement_name=inhibition scale_unit=% reported_result=2.6
compound="N#CC1=C(N)Oc2n[nH]c(-c3cccs3)c2C1c1cccs1 (stereo not given)" measurement_name=inhibition scale_unit=% reported_result=-15.3
compound=CC(C)NC(=O)NC(=O)COc1cccc2c1OC(C)(C)C2 measurement_name=inhibition scale_unit=% reported_result=-10.1

Answer with the recorded inhibition of CCOC(=O)COc1ccc(S(=O)(=O)Nc2ccc3c(c2)OCO3)cc1 only.
9.5

Answer with the recorded inhibition of Oc1ccc(-c2onc(C(F)(F)F)c2-c2cscn2)c(O)c1 only.
-0.5

Answer with the recorded inhibition of COCCCn1c(SCC(=O)N2CCc3ccccc32)nnc1-c1ccoc1C only.
-3.2

Answer with the recorded inhibition of CCOCCCNCC(=O)N1CCN(S(=O)(=O)c2ccc(C)cc2)CC1 only.
19.3

Answer with the recorded inhibition of CCOC(=O)CN(C)Cc1c[nH]c2ccccc12 only.
-2.2

Answer with the recorded inhibition of COc1ccc2nc(NC(=O)C(NS(=O)(=O)c3cccs3)C(C)C)sc2c1 (stereo not given) only.
0.9

Answer with the recorded inhibition of COc1ccc(C2C(C(=O)c3sc(C)nc3C)=C(O)C(=O)N2CCN2CCOCC2)cc1 (stereo not given) only.
4.5

Answer with the recorded inhibition of O=c1c2ccccc2sn1-c1ccc(S(=O)(=O)N2CCCCC2)cc1 only.
-20.9

Answer with the recorded inhibition of CCSc1nc(-c2ccc(OC)cc2)ccc1C#N only.
1.5

Answer with the recorded inhibition of COc1ccc(S(=O)(=O)NC(CC(=O)NCc2ccco2)c2ccco2)cc1 (stereo not given) only.
8.2

Answer with the recorded inhibition of Cc1ccc(C)c(S(=O)(=O)NCc2ccc(C(=O)N3CCN(C)CC3)cc2)c1 only.
1.1

Answer with the recorded inhibition of Cc1cc(NC(=O)COC(=O)c2cccc(S(=O)(=O)N3CCOCC3)c2)no1 only.
-26.1
